Let's look at some molecules and their measured viability at 28.5 h, 10 µM.
- method-summary: in vitro
- measurement-setup: human, hela cells, % viability

>  <molecule>
CCn1cnc2sc(-c3ccccc3)cc2c1=O [CBK287952]

>  <viability at 28.5 h, 10 µM, %>
65.7

$$$$
>  <molecule>
Cc1nc2nc(-c3ccc(F)cc3F)cn2nc1C [CBK284564]

>  <viability at 28.5 h, 10 µM, %>
90.3

$$$$
>  <molecule>
Cc1csc(Sc2nccc(C(F)(F)F)n2)n1 [CBK093770]

>  <viability at 28.5 h, 10 µM, %>
91.9

$$$$
>  <molecule>
Cc1nnc2n1CCN(CC1CCCCO1)C2 (stereo not drawn) [CBK304267]

>  <viability at 28.5 h, 10 µM, %>
105

$$$$
>  <molecule>
Clc1ccc(CN2CCC(Oc3cncc(OCC4COc5ccccc5O4)n3)C2)cc1 (stereo not drawn) [CBK084364]

>  <viability at 28.5 h, 10 µM, %>
94.7

$$$$
>  <molecule>
Nc1nc2c3c(c(-c4ccccc4)nc2[nH]1)CCCC3 [CBK020648]

>  <viability at 28.5 h, 10 µM, %>
78.2

$$$$
>  <molecule>
CCCC/C=C/c1nccnc1N[C@@H](CO)C(C)C [CBK037514]

>  <viability at 28.5 h, 10 µM, %>
101

$$$$
>  <molecule>
CC(C)(C)OC(=O)N1CCCC(NCc2ccccn2)CC1 (stereo not drawn) [CBK305128]

>  <viability at 28.5 h, 10 µM, %>
106

$$$$
>  <molecule>
CC(C)CN1CC(C(=O)N(C)CC2OCCc3ccccc32)CC1=O (stereo not drawn) [CBK282093]

>  <viability at 28.5 h, 10 µM, %>
102

$$$$
>  <molecule>
O=C(c1ccco1)N1CCC[C@@H]1[C@@H](O)c1cccs1 [CBK284291]

>  <viability at 28.5 h, 10 µM, %>
80.7

$$$$
>  <molecule>
COc1ccccc1CC(=O)NNC(=O)c1ccco1 [CBK262956]

>  <viability at 28.5 h, 10 µM, %>
91.6

$$$$
>  <molecule>
Cc1ccc2nc(-c3ccc4c(c3)CCN4S(C)(=O)=O)cn2c1 [CBK285185]

>  <viability at 28.5 h, 10 µM, %>
96.6

$$$$
>  <molecule>
O=C(NC(Cc1ccsc1)c1nccs1)C1CC2C=CC1O2 (stereo not drawn) [CBK285096]

>  <viability at 28.5 h, 10 µM, %>
91.9

$$$$
>  <molecule>
CCCC/C=C/c1nccnc1N(C)Cc1ccccc1 [CBK037412]

>  <viability at 28.5 h, 10 µM, %>
99.8

$$$$
>  <molecule>
O=C(O)c1cc(Sc2nnnn2-c2ccccc2)c2ccccc2c1O [CBK006925]

>  <viability at 28.5 h, 10 µM, %>
87.8

$$$$
>  <molecule>
CCN(CC)C(=O)c1[nH]c2ccccc2c1NS(=O)(=O)Cc1ccccc1 [CBK050107]

>  <viability at 28.5 h, 10 µM, %>
108

$$$$
>  <molecule>
Cc1noc(C2(O)CCN(CCc3ccc(F)c(F)c3)C2)n1 (stereo not drawn) [CBK304753]

>  <viability at 28.5 h, 10 µM, %>
93.9

$$$$
>  <molecule>
Cc1cc2ncn(CC(=O)N3CCc4ccccc43)c2cc1C [CBK200270]

>  <viability at 28.5 h, 10 µM, %>
114

$$$$
>  <molecule>
O=C1CCC(=O)N1CCN1CC(O)CC1c1cc(F)ccc1F (stereo not drawn) [CBK306390]

>  <viability at 28.5 h, 10 µM, %>
92.8

$$$$
>  <molecule>
Cc1ccc(-c2noc([C@@H]3Cc4[nH]cnc4CN3C(=O)c3cccs3)n2)cc1 [CBK288957]

>  <viability at 28.5 h, 10 µM, %>
82.2

$$$$
>  <molecule>
CCOc1cc(C(O)c2nnc(-c3ccccc3)o2)ccc1OCC(C)C (stereo not drawn) [CBK132385]

>  <viability at 28.5 h, 10 µM, %>
89.1

$$$$
